# test_target: HLA-A*01:01
# protocol_details: IEDB peptide-MHC binding, purified MHC/direct/fluorescence; filed as Kd, often an IC50 or EC50 that approximates it; bounds were set here for any values at or beyond the usual limits of such assays
# setup_conditions: source organism: Campylobacter jejuni
measured_attribute: Kd

Exercise: // Kd lookup, key: "VSIRGSHHK"
Key: ≥ 20 µM

* * *

# test_target: HLA-A*30:01
# protocol_details: IEDB peptide-MHC binding, purified MHC/competitive/fluorescence; filed as Kd, often an IC50 or EC50 that approximates it; bounds were set here for any values at or beyond the usual limits of such assays
# setup_conditions: source organism: Rickettsia prowazekii str. Madrid E
measured_attribute: Kd

Exercise: Need Kd of "RRNRKALWL" , thanks.
Key: ≥ 20 µM

* * *

# test_target: HLA-B*27:03
# protocol_details: IEDB peptide-MHC binding, purified MHC/competitive/fluorescence; filed as Kd, often an IC50 or EC50 that approximates it; bounds were set here for any values at or beyond the usual limits of such assays
# setup_conditions: source organism: Four Corners hantavirus
measured_attribute: Kd

Exercise: Given "KARNIISPV" , state its recorded Kd.
Key: ≥ 20 µM

* * *

# test_target: HLA-B*18:01
# protocol_details: IEDB peptide-MHC binding, purified MHC/competitive/fluorescence; filed as Kd, often an IC50 or EC50 that approximates it; bounds were set here for any values at or beyond the usual limits of such assays
# setup_conditions: source organism: Cryptosporidium parvum Iowa II
measured_attribute: Kd

Exercise: Please tell me: Kd of "LTAPCDIYV" , system HLA-B*18:01?
Key: ≥ 20 µM

* * *

# test_target: HLA-B*46:01
# protocol_details: IEDB peptide-MHC binding, purified MHC/direct/fluorescence; filed as Kd, often an IC50 or EC50 that approximates it; bounds were set here for any values at or beyond the usual limits of such assays
# setup_conditions: source organism: Influenza A virus (A/chicken/Hubei/wk/1997(H5N1))
measured_attribute: Kd

Exercise: Find the recorded Kd belonging to "NPALRMKWM" and report it.
Key: ≥ 20 µM

* * *

# test_target: HLA-A*11:01
# protocol_details: IEDB peptide-MHC binding, purified MHC/direct/fluorescence; filed as Kd, often an IC50 or EC50 that approximates it; bounds were set here for any values at or beyond the usual limits of such assays
# setup_conditions: source organism: Francisella tularensis subsp. holarctica LVS
measured_attribute: Kd

Exercise: Need Kd of "EFKRRLKDL" , thanks.
Key: ≥ 20 µM

* * *

# test_target: HLA-B*58:01
# protocol_details: IEDB peptide-MHC binding, purified MHC/competitive/fluorescence; bounds were set here for any values at or beyond the usual limits of such assays
# setup_conditions: source organism: Gorilla gorilla gorilla
pIC50: −log10 of the molar value.
measured_attribute: pIC50

Exercise: What does the data say about its pIC50? Entry: "RYSHWTKL"
Key: ≤ 4.70

* * *

# test_target: HLA-B*57:01
# protocol_details: IEDB peptide-MHC binding, purified MHC/competitive/fluorescence; filed as Kd, often an IC50 or EC50 that approximates it; bounds were set here for any values at or beyond the usual limits of such assays
# setup_conditions: source organism: Burkholderia pseudomallei K96243
pKd: −log10 of the molar value.
measured_attribute: pKd

Exercise: Which pKd is reported with HLA-B*57:01 for this entry: "SELTVSPPD" ?
Key: ≤ 4.70

* * *

# test_target: HLA-B*27:20
# protocol_details: IEDB peptide-MHC binding, purified MHC/competitive/fluorescence; filed as Kd, often an IC50 or EC50 that approximates it; bounds were set here for any values at or beyond the usual limits of such assays
# setup_conditions: source organism: Salmonella enterica subsp. enterica serovar Paratyphi B str. SPB7
measured_attribute: Kd
Record the result as number plus unit.

Exercise: Could you tell me which Kd is on file for "YESSHWLVV" ?
Key: 113 nM

* * *

# test_target: HLA-A*31:01
# protocol_details: IEDB peptide-MHC binding, purified MHC/direct/fluorescence; filed as Kd, often an IC50 or EC50 that approximates it; bounds were set here for any values at or beyond the usual limits of such assays
# setup_conditions: source organism: Mammarenavirus lassaense
measured_attribute: Kd

Exercise: Recorded Kd for "NQFGTMPSL" , please?
Key: ≥ 20 µM

* * *

# test_target: HLA-A*02:06
# protocol_details: IEDB peptide-MHC binding, purified MHC/competitive/radioactivity; filed as Kd, often an IC50 or EC50 that approximates it; bounds were set here for any values at or beyond the usual limits of such assays
# setup_conditions: source organism: Vaccinia virus WR
Define the label as Satisfied when Kd is strictly less than 6 µM and as Not satisfied in all remaining cases.

{"item_sequence": "IIAVFDSKLI", "cat": "Not satisfied"}
{"item_sequence": "GLESIEQNLT", "cat": "Not satisfied"}
{"item_sequence": "SMKGENVFI", "cat": "Not satisfied"}
{"item_sequence": "MLHNPTSET", "cat": "Not satisfied"}
{"item_sequence": "LLNETAKVI", "cat": "Not satisfied"}

Exercise: Does the reported Kd of the following sequence sit strictly below 6 µM? "TLLNETAKVI"
Key: Not satisfied

Exercise: Lab log: compare recorded Kd with 6 µM; is it strictly lower for "IVSRSSRGV" ?
Key: Satisfied

Exercise: For "AAVTLNRIKI" , is the recorded Kd below the cut-off of 6 µM?
Key: Satisfied

Exercise: Bench note: check whether "ITGNKVKTEL" shows Kd below 6 µM
Key: Not satisfied

Exercise: Threshold test, Kd < 6 µM: "MAEFEDQLV"
Key: Satisfied

Exercise: Determine if "RAGYSIVEL" shows Kd strictly lower than 6 µM.
Key: Satisfied

* * *

# test_target: HLA-A*02:16
# protocol_details: IEDB peptide-MHC binding, purified MHC/competitive/fluorescence; filed as Kd, often an IC50 or EC50 that approximates it; bounds were set here for any values at or beyond the usual limits of such assays
# setup_conditions: source organism: Entamoeba histolytica HM-1:IMSS
pKd: −log10 of the molar value.
measured_attribute: pKd

Exercise: Request the reported pKd associated with "RSLVCLAPK"
Key: ≤ 4.70

* * *

# test_target: HLA-A*03:01
# protocol_details: IEDB peptide-MHC binding, purified MHC/direct/fluorescence; filed as Kd, often an IC50 or EC50 that approximates it; bounds were set here for any values at or beyond the usual limits of such assays
# setup_conditions: source organism: Listeria monocytogenes
measured_attribute: pKd
Answers are plain numbers, as −log10 of the molar value.

Exercise: I'd like to know its pKd. The sequence in question is "RVTDMAPFK"
Key: 6.39

* * *

# test_target: HLA-B*58:01
# protocol_details: IEDB peptide-MHC binding, purified MHC/direct/fluorescence; filed as Kd, often an IC50 or EC50 that approximates it; bounds were set here for any values at or beyond the usual limits of such assays
# setup_conditions: source organism: Human immunodeficiency virus type 1 BH10
measured_attribute: pKd
Numbers only, as −log10 of the molar value.

Exercise: What value of pKd has been reported for the following sequence? "WASRELERF"
Key: 7.56

* * *

# test_target: HLA-A*11:01
# protocol_details: IEDB peptide-MHC binding, purified MHC/competitive/radioactivity; filed as Kd, often an IC50 or EC50 that approximates it; bounds were set here for any values at or beyond the usual limits of such assays
# setup_conditions: source organism: Triticum aestivum
measured_attribute: Kd (nM)
Numbers only, in nM.

Exercise: Quick one: Kd for "LQQHNIVHGK" ?
Key: 100

* * *

# test_target: HLA-B*07:02
# protocol_details: IEDB peptide-MHC binding, purified MHC/competitive/radioactivity; filed as Kd, often an IC50 or EC50 that approximates it; bounds were set here for any values at or beyond the usual limits of such assays
# setup_conditions: source organism: Variola virus
measured_attribute: pKd
Answers are plain numbers, as −log10 of the molar value.

Exercise: Quick one: pKd of "AKNPNRFVI" ?
Key: 4.92

* * *

# test_target: HLA-A*23:01
# protocol_details: IEDB peptide-MHC binding, purified MHC/competitive/radioactivity; filed as Kd, often an IC50 or EC50 that approximates it; bounds were set here for any values at or beyond the usual limits of such assays
# setup_conditions: source organism: Mammarenavirus brazilense
measured_attribute: pKd
Numbers only, as −log10 of the molar value.

Exercise: I have this sequence here, "NYPYLFEEHL" , and I need its recorded pKd.
Key: 6.08

* * *

# test_target: HLA-A*31:01
# protocol_details: IEDB peptide-MHC binding, purified MHC/direct/fluorescence; filed as Kd, often an IC50 or EC50 that approximates it; bounds were set here for any values at or beyond the usual limits of such assays
# setup_conditions: source organism: Escherichia coli O157:H7
measured_attribute: Kd

Exercise: Look up Kd: "HEVHAVWPG"
Key: ≥ 20 µM

* * *

# test_target: HLA-B*40:01
# protocol_details: IEDB peptide-MHC binding, purified MHC/direct/fluorescence; filed as Kd, often an IC50 or EC50 that approximates it; bounds were set here for any values at or beyond the usual limits of such assays
# setup_conditions: source organism: Aggregatibacter actinomycetemcomitans
measured_attribute: Kd

Exercise: # query: Kd of entry "KYDDRIQSQ"
Key: ≥ 20 µM
